Assay Name: endothelial E-selectin expression blockers – imaging, HUVEC, immunofluorescence, MLSMR starter and 10KST1 sets, primary screen (AID 487);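 note: 100% = median nuclei count of all wells on the same plate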
Run Parameters: HUVEC TNFalpha-induced E-selectin immunofluorescence imaging, at 2 µM; measured here: cell number, toxicity
Measured nuclei count values are reported for all entries that follow.
The response must be a number in % with no trailing unit.

See these solved cases before continuing.
CCOC(=O)c1cccc(NC2c3ccccc3C(=O)N2Cc2ccco2)c1 (centres undefined): 119
c1ccc(N2CCN(Cc3ccnc4ccccc34)CC2)cc1: 102
CC1=C(n2nnc3ccccc32)C(c2ccccc2)C(C#N)=C(N)O1 (centres undefined): 113

input: Annotate the compound COc1ccccc1C1CC(c2ccc(C)cc2)Nc2ncnn21 (centres undefined) with its measured nuclei count.
output: 119

input: Annotate the compound O=C(c1cc2cc(Cl)cc(Cl)c2oc1=O)N1CCOCC1 with its measured nuclei count.
output: 110

###

Assay Name: inhibitors of TNFa-induced NFkB p65 translocation, primary screen, imaging, HUVEC, MLSMR starter and 10KST1 sets (AID 438);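 note: compound added about 3h40 before a 20 min TNFalpha stimulation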;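 for inhibition: signal is the nuclear over cytoplasmic p65 intensity ratio per well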
Run Parameters: HUVEC TNFa-induced p65 nuclear translocation; at 2 µM, stronger effect = higher value, 0% TNFa-plus-vehicle, 100% no-TNFa wells
Active and inactive are the calls of the source.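 The calls were made as follows: active = inhibition above 20% together with a positive visual image hit; inconclusive = visual image hit but inhibition not above 20%; inactive = no visual image hit.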
Assay Metric: inhibition

See these solved cases before continuing.
Cn1cc(Cl)c(C(=O)NC2CCCC2)n1: -8.5% (inactive)
CCOC(=O)c1cc2c(=O)n3ccccc3nc2n(CC(C)C)c1=NC(=O)c1ccco1: -13.4% (inactive)
O=C(Nn1cnnc1)C1Cc2ccccc2CN1S(=O)(=O)c1ccc(F)cc1 (configuration not stated): -6.7% (inactive)
CC(=O)c1c(C)[nH]c(C(=O)N2CCN(C(=O)c3ccco3)CC2)c1C: -19.9% (inactive)
Cc1cc(Nc2ccc(N3CCC(C)CC3)cc2)n2ncnc2n1: -2.4% (inactive)
Cc1ncc(CSc2nc3ccccc3[nH]2)c(N)n1: 11.9% (inactive)

input: Annotate the molecule CC(=O)NC(CCS(C)(=O)=O)C(=O)Nc1cccc(C)c1C (configuration not stated) with its measured inhibition.
output: 4.3% (inactive)

input: Annotate the molecule CC1CCN(Cc2ccc(NC(=O)C3CCN(c4nnc(-n5cccc5)s4)CC3)cc2)CC1 with its measured inhibition.
output: -3% (inactive)

input: Annotate the molecule CCCc1cc(=O)[nH]c(Nc2ccc(OC)c(Cl)c2)n1 with its measured inhibition.
output: -0.8% (inactive)

input: Annotate the molecule c1ccc2c(c1)CC(N1CCCCC1)c1ccccc1N2 (configuration not stated) with its measured inhibition.
output: -6.3% (inactive)

###

Assay Name: blockers of RIG-like receptor reporter activation – cell-based, Sendai virus stimulus, luciferase, 10K MLSCN set, TLR/RLR signaling modifier project, primary screen (AID 602276);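 note: firefly luciferase from ISG56 promoter only with Renilla not read in this screen; 0% = Sendai virus plus DMSO and 100% = medium plus DMSO without virus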
Run Parameters: HEK293 RL24 IRF3 luciferase reporter, at 10 µM, stronger effect = higher value
Assay Metric: inhibition (%)
The response must be a number in % with no trailing unit.

input: Annotate the compound CCCOC(=O)c1[nH]c2c(c1C)C(=O)CC(c1cc(OC)c(OC)c(OC)c1)C2 (centres undefined) with its measured inhibition.
output: 0.863

input: Annotate the compound CC1CN(c2ccc(Oc3ccccc3)cc2)c2nc3c(c(=O)n(CC(N)=O)c(=O)n3C)n2C1 (centres undefined) with its measured inhibition.
output: 9.73

input: Annotate the compound O=c1c2cc(N3CCOCC3)ccc2[nH]c(=S)n1CCCN1CCCCC1 with its measured inhibition.
output: -10.1

input: Annotate the compound CC(=O)Nc1ccc(N=Cc2ccc[nH]2)cc1 with its measured inhibition.
output: 9.12

input: Annotate the compound O=C(Nc1nc(-c2cccs2)cs1)c1cccc(S(=O)(=O)N2CCCCC2)c1 with its measured inhibition.
output: 6.17

input: Annotate the compound Oc1cccc(C=NCc2ccccc2)c1O with its measured inhibition.
output: 10.5

input: Annotate the compound CC(C)Cn1c(CN(Cc2ccccc2)Cc2ccccc2)nc2c1c(=O)n(C)c(=O)n2C with its measured inhibition.
output: 9.97

input: Annotate the compound N#Cc1nc(-c2ccco2)oc1NCCc1ccccc1 with its measured inhibition.
output: -33.8

input: Annotate the compound CCn1nc(CC(=O)Nc2nnc(CC(=O)N3CCCCC3)s2)c2ccccc2c1=O with its measured inhibition.
output: 8.15

input: Annotate the compound CCCC(=O)Nc1nnc(Sc2ccc(N(C)C)cc2)s1 with its measured inhibition.
output: -1.24

input: Annotate the compound COc1ccc(N2CCN(C(=O)COc3ccc4ccccc4c3)CC2)cc1 with its measured inhibition.
output: 4.32

input: Annotate the compound Cc1cc(C)n(-c2ccc(C(=O)Nc3ccc4c(c3)OCCO4)cc2)n1 with its measured inhibition.
output: -19.7

input: Annotate the compound O=C(c1ccco1)N(Cc1cc2ccccc2[nH]c1=O)C1CCCCC1 with its measured inhibition.
output: -3.39

input: Annotate the compound Cc1ccc(-n2ncc3c(=O)[nH]c(SC(C)C)nc32)cc1 with its measured inhibition.
output: 7.08

input: Annotate the compound COc1cc(SC)ccc1C(=O)Nc1ccon1 with its measured inhibition.
output: -57.7

input: Annotate the compound CCc1nc(N)c(C#N)c(-c2ccc(OC)c(OC)c2)c1C with its measured inhibition.
output: 16.9

###

Measured NADPH fluorescence slope values are reported for all entries that follow.
Study Target: Voltage-gated potassium channel subunit beta-2 (Rattus norvegicus)
Assay Name: enhancers of rat Kvbeta2 NADPH turnover – biochemical, NADPH fluorescence, primary screen (AID 623);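 note: fluorescence intensity change per second fitted from 20 to 320 s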
Run Parameters: Recombinant KvBeta, NADPH fluorescence decrease slope, 10 min; at 10 µM; stronger effect = lower value
Number only, no unit.

See these solved cases before continuing.
CCN(CCCNC(=O)COc1cc(=O)n(CC)c2ccccc12)c1ccccc1: -4e-05
CCCc1ccc(Oc2cn[nH]c2-c2ccc(O)c(C)c2O)cc1: -1.2e-05
CCOC(=O)C1CCCN(C(=O)c2ccc(CS(=O)(=O)c3ccc(Br)cc3)o2)C1 (stereo not drawn): -7.7e-05

input: Annotate the molecule Cc1occc1C(=O)N1CCN(Cc2ccccc2)CC1 with its measured NADPH fluorescence slope.
output: -3.8e-05

input: Annotate the molecule COc1ccc(-n2c(Cc3cccn3C)nnc2SCC(=O)Nc2ccc(Cl)cc2)cc1 with its measured NADPH fluorescence slope.
output: -5e-06

input: Annotate the molecule COc1ccccc1N1CCN(C(=O)CN(Cc2ccc(Cl)cc2)S(C)(=O)=O)CC1 with its measured NADPH fluorescence slope.
output: 7.6e-06

input: Annotate the molecule CCCC(=O)Nc1cccc(NC(=O)CN2CCN(c3ccccc3OC)CC2)c1 with its measured NADPH fluorescence slope.
output: -4.6e-05

input: Annotate the molecule O=C(CN1C(=O)NC2(CCCCC2)C1=O)Nc1ccc(S(=O)(=O)N2CCOCC2)cc1 with its measured NADPH fluorescence slope.
output: -7.9e-06

###

Measured inhibition values are reported for all entries that follow.
Assay Name: TLR3 IRF3 reporter activation blockers – cell-based, poly I:C stimulus, luciferase, 10K MLSCN set, primary screen (AID 602277)
Run Parameters: HEK293-TLR3 RL24 IRF3 luciferase reporter, at 10 µM, stronger effect = higher value
The response must be a number in % with no trailing unit.

See these solved cases before continuing.
CCN(CC)c1ccc(/C=N/n2nnnc2N)c(O)c1: 1.57
CC(C)(C)C(=O)CCN1C(=O)C2(OCCO2)c2ccccc21: 22.3
CCOC(=O)c1sc2nc(NC(=O)C(C)(C)C)sc2c1C: -150
COC(=O)C1=C(C)C(c2cccs2)NC(=O)N1C (stereo not given): 17.5
Cc1ccccc1C1CC(c2ccccc2)Nc2ncnn21 (stereo not given): 15.7

input: Annotate the compound O=C(CCSc1nccn1Cc1ccccc1)N1CCOCC1 with its measured inhibition.
output: -9.28

###

Assay Name: inhibitors of TNFa-induced NFkB p65 translocation, primary screen, imaging, HUVEC, MLSMR starter and 10KST1 sets (AID 438);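 note: compound added about 3h40 before a 20 min TNFalpha stimulation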
Run Parameters: HUVEC TNFa-induced p65 nuclear translocation; measured here: nuclei count (cytotoxicity indicator), at 2.08 µM
Measured cell count values are reported for all entries that follow.
Number only, no unit.

C=CCn1c(SCC(=O)c2cc(C)n(C(C)COC)c2C)nc2sc(C)c(C)c2c1=O (configuration not stated): 357
COC(=O)C(C)Sc1nc2c(c(=O)n1-c1ccccc1)SCC2 (configuration not stated): 330
CCOc1cc(C(=O)N(C)c2ccccc2)cc(OCC)c1OCC: 314
Cc1cc(C(=O)Nc2ccccc2C#N)n(-c2ccccc2)n1: 763
COCCNC(=O)CCc1nc(-c2ccccc2)no1: 294

input: Annotate the molecule Cc1cccc(N=C2NC(=O)CS2)c1C with its measured cell count.
output: 333

input: Annotate the molecule COc1cc(C)nc(N2CCCC(C(=O)Nc3cccc(Cl)c3Cl)C2)n1 (configuration not stated) with its measured cell count.
output: 395

input: Annotate the molecule O=C(O)CCNc1nc(-c2ccccc2)nc2ccccc12 with its measured cell count.
output: 619

###

Assay Name: inhibitors of TNFa-induced NFkB p65 translocation, primary screen, imaging, HUVEC, MLSMR starter and 10KST1 sets (AID 438);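 note: compound added about 3h40 before a 20 min TNFalpha stimulation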
Run Parameters: HUVEC TNFa-induced p65 nuclear translocation; measured here: nuclei count (cytotoxicity indicator), at 2.08 µM
Assay Metric: cell count
Number only, no unit.

See these solved cases before continuing.
O=C(C1CCCN(S(=O)(=O)c2cccs2)C1)N1CCc2ccccc2C1 (stereo unspecified): 668
COC(=O)CSC1=NS(=O)(=O)c2ccccc21: 340
CC1C(=O)C(C)C(c2cccs2)NC1c1cccs1 (stereo unspecified): 295
CCC1CCCCN1C(=O)C1CC(c2cc(Cl)c(OC)cc2OC)=NO1 (stereo unspecified): 411

input: Annotate the compound O=C(NCC12CC3CC(C1)CC(CNC(=O)N1CCCC1)(C3)C2)N1CCCC1 with its measured cell count.
output: 633
